Just for reference, patent US7718767B2 is where these values come from.

Tested on: human hepatoma cell line ET
Assay: Cytotoxicity in the replicon cell line, colorimetric assay of cell numbers
Conditions: read-out: Cytotoxicity IC50; ET cells, 72 h; concentration inhibiting cell viability by 50%
Endpoint Label: IC50

Ask: Quick one: give measured IC50 for C/C=C/C[C@@H](C)[C@@H](O)[C@H]1C(=O)N[C@@H](CC)C(=O)N(C)C(OCCNC)C(=O)N(C)[C@@H](CC(C)C)C(=O)N[C@@H](C(C)C)C(=O)N(C)[C@@H](CC(C)C)C(=O)N[C@@H](C)C(=O)N[C@H](C)C(=O)N(C)[C@@H](CC(C)C)C(=O)N(C)[C@@H](CC(C)C)C(=O)N(C)[C@@H](C(C)C)C(=O)N1C (stereo partly drawn) [Compound I, 3-[2-(N-methylamino)ethoxy]cyclosporin]
Result: 2830 nM

Ask: Given the compound CC=CCC(C)C(O)C1C(=O)NC(CC)C(=O)N(C)C(SCCN(C)C)C(=O)N(C)C(CC(C)(C)O)C(=O)NC(C(C)C)C(=O)N(C)C(CC(C)C)C(=O)NC(C)C(=O)NC(C)C(=O)N(C)C(CC(C)C)C(=O)N(C)C(CC(C)C)C(=O)N(C)C(C(C)C)C(=O)N1C (stereo not drawn) [MeSO2] , write its reported IC50.
Result: > 2000 nM

Ask: Give IC50 for C/C=C/C[C@@H](C)[C@@H](O)[C@H]1C(=O)N[C@@H](CC)C(=O)N(C)C(OCCCO)C(=O)N(C)[C@@H](CC(C)C)C(=O)N[C@@H](C(C)C)C(=O)N(C)[C@@H](CC(C)C)C(=O)N[C@@H](C)C(=O)N[C@H](C)C(=O)N(C)[C@@H](CC(C)C)C(=O)N(C)[C@@H](CC(C)C)C(=O)N(C)[C@@H](C(C)C)C(=O)N1C (stereo partly drawn) [H, 3-(3-hydroxypropoxy)cyclosporin]
Result: > 20000 nM

Ask: Give recorded IC50. C/C=C/C[C@@H](C)[C@@H](O)[C@H]1C(=O)N[C@@H](CC)C(=O)N(C)C(OCC)C(=O)N(C)[C@@H](CC(C)C)C(=O)N[C@@H](C(C)C)C(=O)N(C)[C@@H](CC(C)C)C(=O)N[C@@H](C)C(=O)N[C@H](C)C(=O)N(C)[C@@H](CC(C)C)C(=O)N(C)[C@@H](CC(C)C)C(=O)N(C)[C@@H](C(C)C)C(=O)N1C (stereo partly drawn)
Result: > 20000 nM

Ask: Give a short answer stating reported IC50 for C=CCO[C@@H]1C(=O)N(C)[C@@H](CC(C)(C)O)C(=O)N[C@@H](C(C)C)C(=O)N(C)[C@@H](CC(C)C)C(=O)N[C@@H](C)C(=O)N[C@H](C)C(=O)N(C)[C@@H](CC(C)C)C(=O)N(C)[C@@H](CC(C)C)C(=O)N(C)[C@@H](C(C)C)C(=O)N(C)[C@@H]([C@H](O)[C@H](C)C/C=C/C)C(=O)N[C@@H](CC)C(=O)N1C .
Result: > 2000 nM

Ask: Fill in IC50 for record C/C=C/C[C@@H](C)[C@@H](O)[C@H]1C(=O)N[C@@H](CC)C(=O)N(C)C(OC)C(=O)N(C)[C@@H](CC(C)(C)O)C(=O)N[C@@H](C(C)C)C(=O)N(C)[C@@H](CC(C)C)C(=O)N[C@@H](C)C(=O)N[C@H](C)C(=O)N(C)[C@@H](CC(C)C)C(=O)N(C)[C@@H](CC(C)C)C(=O)N(C)[C@@H](C(C)C)C(=O)N1C (stereo partly drawn)
Result: > 2000 nM

----------
Record form. Attribute: IC50. Fill in for each entry.
Tested on: CEM-SS cells
Test: Compound cytotoxicity in the HIV MTS assay (cells plus drug only)
Format: cell-based, human
Details: 50% inhibition of cell growth
Numeric answer only, unit µM assumed.

Ask: Annotate the compound C/C=C/C[C@@H](C)[C@@H](O)[C@H]1C(=O)N[C@@H](CC)C(=O)N(C)[C@H](SCCOC)C(=O)N(C)[C@@H](CC(C)C)C(=O)N[C@@H](C(C)C)C(=O)N(C)[C@@H](CC(C)C)C(=O)N[C@@H](C)C(=O)N[C@H](C)C(=O)N(C)[C@@H](CC(C)C)C(=O)N(C)[C@@H](CC(C)C)C(=O)N(C)[C@@H](C(C)C)C(=O)N1C [R, 3-[(2-methoxy)ethylthio]cyclosporin] with its measured IC50.
Result: 17.3

Ask: Give IC50 for the following compound: C=CCS[C@@H]1C(=O)N(C)[C@@H](CC(C)C)C(=O)N[C@@H](C(C)C)C(=O)N(C)[C@@H](CC(C)C)C(=O)N[C@@H](C)C(=O)N[C@H](C)C(=O)N(C)[C@@H](CC(C)C)C(=O)N(C)[C@@H](CC(C)C)C(=O)N(C)[C@@H](C(C)C)C(=O)N(C)[C@@H]([C@H](O)[C@H](C)C/C=C/C)C(=O)N[C@@H](CC)C(=O)N1C
Result: 18.9

Ask: Note down IC50 recorded for C=CCO[C@@H]1C(=O)N(C)[C@@H](CC(C)(C)O)C(=O)N[C@@H](C(C)C)C(=O)N(C)[C@@H](CC(C)C)C(=O)N[C@@H](C)C(=O)N[C@H](C)C(=O)N(C)[C@@H](CC(C)C)C(=O)N(C)[C@@H](CC(C)C)C(=O)N(C)[C@@H](C(C)C)C(=O)N(C)[C@@H]([C@H](O)[C@H](C)C/C=C/C)C(=O)N[C@@H](CC)C(=O)N1C
Result: 13.4

Ask: Consider the compound C/C=C/C[C@@H](C)[C@@H](O)[C@H]1C(=O)N[C@@H](CC)C(=O)N(C)C(OC)C(=O)N(C)[C@@H](CC(C)(C)O)C(=O)N[C@@H](C(C)C)C(=O)N(C)[C@@H](CC(C)C)C(=O)N[C@@H](C)C(=O)N[C@H](C)C(=O)N(C)[C@@H](CC(C)C)C(=O)N(C)[C@@H](CC(C)C)C(=O)N(C)[C@@H](C(C)C)C(=O)N1C (stereo partly drawn) and give its recorded IC50.
Result: 18

Ask: For the compound C/C=C/C[C@@H](C)[C@@H](O)[C@H]1C(=O)N[C@@H](CC)C(=O)N(C)[C@H](SCCN(C)C)C(=O)N(C)[C@@H](CC(C)(C)O)C(=O)N[C@@H](C(C)C)C(=O)N(C)[C@@H](CC(C)C)C(=O)N[C@@H](C)C(=O)N[C@H](C)C(=O)N(C)[C@@H](CC(C)C)C(=O)N(C)[C@@H](CC(C)C)C(=O)N(C)[C@@H](C(C)C)C(=O)N1C , give its reported IC50.
Result: 20

Ask: Please list IC50 recorded for the compound C/C=C/C[C@@H](C)[C@@H](O)[C@H]1C(=O)N[C@@H](CC)C(=O)N(C)C(SC)C(=O)N(C)[C@@H](CC(C)(C)O)C(=O)N[C@@H](C(C)C)C(=O)N(C)[C@@H](CC(C)C)C(=O)N[C@@H](C)C(=O)N[C@H](C)C(=O)N(C)[C@@H](CC(C)C)C(=O)N(C)[C@@H](CC(C)C)C(=O)N(C)[C@@H](C(C)C)C(=O)N1C (stereo partly drawn)
Result: 14

Ask: Identify the reported IC50 for the following entry. C/C=C/C[C@@H](C)[C@@H](O)[C@H]1C(=O)N[C@@H](CC)C(=O)N(C)[C@H](OCCN2CCOCC2)C(=O)N(C)[C@@H](CC(C)C)C(=O)N[C@@H](C(C)C)C(=O)N(C)[C@@H](CC(C)C)C(=O)N[C@@H](C)C(=O)N[C@H](C)C(=O)N(C)[C@@H](CC(C)C)C(=O)N(C)[C@@H](CC(C)C)C(=O)N(C)[C@@H](C(C)C)C(=O)N1C
Result: 19.5

Ask: Please give measured IC50 of the following entry: C/C=C/C[C@@H](C)[C@@H](O)[C@H]1C(=O)N[C@@H](CC)C(=O)N(C)C(OCCCO)C(=O)N(C)[C@@H](CC(C)C)C(=O)N[C@@H](C(C)C)C(=O)N(C)[C@@H](CC(C)C)C(=O)N[C@@H](C)C(=O)N[C@H](C)C(=O)N(C)[C@@H](CC(C)C)C(=O)N(C)[C@@H](CC(C)C)C(=O)N(C)[C@@H](C(C)C)C(=O)N1C (stereo partly drawn) [H, 3-(3-hydroxypropoxy)cyclosporin]
Result: 13.3

Ask: Kindly indicate its recorded IC50. Item: C/C=C/C[C@@H](C)[C@@H](O)[C@H]1C(=O)N[C@@H](CC)C(=O)N(C)C(SCC)C(=O)N(C)[C@@H](CC(C)C)C(=O)N[C@@H](C(C)C)C(=O)N(C)[C@@H](CC(C)C)C(=O)N[C@@H](C)C(=O)N[C@H](C)C(=O)N(C)[C@@H](CC(C)C)C(=O)N(C)[C@@H](CC(C)C)C(=O)N(C)[C@@H](C(C)C)C(=O)N1C (stereo partly drawn)
Result: 6.15
